- assayInfo: qHTS assay to identify small molecule HDAC inhibitors (AID 1259364);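 note: wild-type HCT-116 cells with endogenous class I/II HDAC activity; nearly all actives have a fitted effect of over 45% in size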
- conditionParameters: HCT-116 HDAC-Glo I/II luminescence, 2 h; series mostly up to 92.4 µM
Results filed as inconclusive are left out. The source made the active and inactive calls. Calls come from the whole dose curve; as a rule, active = well fitted inhibition curve with a large enough effect in the repeat runs; inconclusive = weak or mixed curves; inactive = flat fitted curve, though single readings scatter.
# output must be one of active, inactive

- compound: "NCCCOCCOCCOCCCN"
  categoryLabel: "inactive"

q: What call does the record list for Oc1ccc(Cc2ccccc2)cc1 ?
a: inactive

q: What call does the record list for O=[N+]([O-])c1cc[n+]([O-])cc1 ?
a: inactive

q: What call does the record list for Cn1c(=O)c2c(ncn2CC(O)CO)n(C)c1=O (stereo not given) ?
a: inactive

q: What call does the record list for CC(C)(C)c1cc(CO)cc(C(C)(C)C)c1O ?
a: inactive

q: What call does the record list for CC(C)c1ccccc1C(C)C ?
a: inactive

q: What call does the record list for O=C1[C@H](CC[C@H](O)c2ccc(F)cc2)[C@@H](c2ccc(O)cc2)N1c1ccc(F)cc1 ?
a: inactive

q: What call does the record list for CC1=CCC(C(C)C)C=C1 (stereo not given) ?
a: inactive

q: What call does the record list for OCC1CC2CC1C1CCC(CO)C21 (stereo not given) ?
a: inactive

q: What call does the record list for Nc1ccc(C(=O)Nc2ccccc2N)cc1 ?
a: active

q: What call does the record list for CC(C)(C)c1ccc(S)cc1 ?
a: inactive

q: What call does the record list for CN(C)C/C=C(/c1ccc(Br)cc1)c1cccnc1 ?
a: inactive

q: What call does the record list for CC(C)CCCC(C)CCO (stereo not given) ?
a: inactive

q: What call does the record list for Cn1c(N)nc2nc[nH]c2c1=O ?
a: inactive

q: What call does the record list for CN(C)CC[C@@H](c1ccc(Br)cc1)c1ccccn1 ?
a: inactive

====

- studyTarget: Nuclear receptor subfamily 1 group I member 2 (Rattus norvegicus)
- assayInfo: Rat pregnane X receptor (rPXR) activation by small molecules, qHTS assay (AID 1346983); note: % is set by controls: 0 for no effect and ±100 for the full control effect; nearly all actives have a fitted effect of over 20% in size
- conditionParameters: rPXR luciferase reporter cells, One-Glo luminescence, 24 h; active compounds read high
Inconclusive results are not listed.
# max activation values compiled below
Numbers only here, please. The scale is %.

The cases that follow already have their max activation on record.
- molecule: "CCN(CC)CCc1nc(-c2ccccc2)no1"
  property: "max activation"
  endpointValue: -0.305
- molecule: "CN(C)C/C=C(/c1ccc(Br)cc1)c1cccnc1"
  property: "max activation"
  endpointValue: -0.374
- molecule: "CN(C)CC[C@@H](c1ccc(Br)cc1)c1ccccn1"
  property: "max activation"
  endpointValue: -1.37
- molecule: "CC(=O)O[C@H]1C[C@@H]2CC[C@@H]3[C@H](CC[C@@]4(C)[C@H]3C[C@H]([N+]3(C)CCCCC3)[C@@H]4OC(C)=O)[C@@]2(C)C[C@@H]1N1CCCCC1"
  property: "max activation"
  endpointValue: -3.12
- molecule: "CCCCOc1cc(C(=O)OCCN(CC)CC)ccc1N"
  property: "max activation"
  endpointValue: -4.73

q: Request the reported max activation associated with CCN1CCC[C@H]1CNC(=O)c1c(OC)ccc(Br)c1OC
a: 7.68

q: Request the reported max activation associated with N=C(N=C(N)N)N1CCOCC1
a: -1.18

q: Request the reported max activation associated with CNS(=O)(=O)Cc1ccc2[nH]cc(CCN(C)C)c2c1
a: -4.94

q: Request the reported max activation associated with CCN(CC)CCOc1ccc2c(c1)C(=O)c1cc(OCCN(CC)CC)ccc1-2
a: 2.03

q: Request the reported max activation associated with Nc1nc(N)c(-c2ccccc2)s1
a: -3.93

q: Request the reported max activation associated with CC(C(=O)O)c1ccc(-c2ccccc2)c(F)c1 (stereo not drawn)
a: -4.66
